Numbers sourced from the supplement of paper PMC11003180.

test system: MDCK p60AmotL2-inducible + doxycycline (p60AmotL2 expressing); assay: drug sensitivity score (DSS) from 5-dose viability curve (DSS (area-based score, 0 = no response)); higher = more sensitive (stronger viability inhibition); extreme values may be limits of the assay; conditions: doxycycline: 10 ng/mL; 72 h
property.measured: drug sensitivity score
Numbers only.

The value of drug sensitivity score recorded for `CN1C(=O)N[C@H](Cc2c[nH]c3c(Cl)cccc23)C1=O` when tested on MDCK p60AmotL2-inducible + doxycycline (p60AmotL2 expressing) reads 0

Here are 5 molecules. What values of drug sensitivity score were reported for them?
1. Nc1nc(N)c2nc(-c3cccc(O)c3)c(-c3cccc(O)c3)nc2n1
2. CS(=O)(=O)N1CCN(Cc2cc3nc(-c4cccc5[nH]ncc45)nc(N4CCOCC4)c3s2)CC1
3. CC1(C)CCC(CN2CCN(c3ccc(C(=O)NS(=O)(=O)c4ccc(NCC5CCOCC5)c([N+](=O)[O-])c4)c(Oc4cnc5[nH]ccc5c4)c3)CC2)=C(c2ccc(Cl)cc2)C1
4. CC[C@@H]1C(=O)N(C)c2cnc(Nc3ccc(C(=O)NC4CCN(C)CC4)cc3OC)nc2N1C1CCCC1
5. C[C@@H](Oc1ccc2[nH]nc(/C=C/c3cnn(CCO)c3)c2c1)c1c(Cl)cncc1Cl

Data returned:
0
14.4
0
15.9
9.3

The value of drug sensitivity score recorded for `C[C@@H](Oc1cc(-n2cnc3ccc(CN4CCN(C)CC4)cc32)sc1C(N)=O)c1ccccc1C(F)(F)F` when tested on MDCK p60AmotL2-inducible + doxycycline (p60AmotL2 expressing) reads 32.1
